Data origin: patent US9115093B2

- study-system: neutrophil elastase (Homo sapiens, UniProt P08246)
- Sequence (P08246 30-247 limits assumed): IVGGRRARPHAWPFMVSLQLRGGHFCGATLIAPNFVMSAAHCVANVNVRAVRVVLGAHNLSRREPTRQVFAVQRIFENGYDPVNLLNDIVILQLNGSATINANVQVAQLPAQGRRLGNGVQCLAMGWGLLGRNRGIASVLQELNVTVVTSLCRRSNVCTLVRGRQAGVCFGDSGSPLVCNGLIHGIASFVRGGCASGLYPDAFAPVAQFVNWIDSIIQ
- protocol: Human Neutrophil Elastase Assay
- Assay type: biochemical
- Set-up: purchased Calbiochem 324681
- assay-setup: substrate MeOSuc-Ala-Ala-Pro-Val-AMC, pH 7.5, room temperature
pIC50: −log10 of the molar value.
quantity-kind: pIC50

// below: answered compounds
N#Cc1ccc(C2C3=C(CCCC3=O)N(c3cccc(C(F)(F)F)c3)C(=O)N2CC(=O)N2CCC3(CC2)CC3)cc1 (stereo not shown): 7.97
N#Cc1ccc(C2C3=C(CCCC3=O)N(c3cccc(C(F)(F)F)c3)C(=O)N2CC(=O)NCCn2cccn2)cc1 (stereo not shown): 7.85
N#Cc1ccc(C2C3=C(CCCC3=O)N(c3cccc(C(F)(F)F)c3)C(=O)N2S(=O)(=O)c2csc(C(=O)O)c2)cc1 (stereo not shown): 7.67

(a) Cc1nc2c(o1)CN(C(=O)CN1C(=O)N(c3cccc(C(F)(F)F)c3)C3=C(C(=O)CCC3)C1c1ccc(C#N)cc1)CC2 (stereo not shown)
(b) N#Cc1ccc([C@H]2C3=C(CCCC3=O)N(c3cccc(C(F)(F)F)c3)C(=O)N2CC(=O)O)cc1 [Example 32B]
(c) N#Cc1ccc(C2NC(=O)N(c3cccc(C(F)(F)F)c3)C3=C2C(=O)CCC3)c(F)c1 (stereo not shown)
[in] Hey, can you sort those compounds up there by pIC50, smallest first? Give your ranking as a list of the labels in the requested order.
[out] b, c, a
(b: 5.85, c: 7.57, a: 7.79)
